# TARGET ENTITY: CDK2 (UniProt P24941)
# METHOD NOTES: Enzyme Assay
PROPERTY: IC50

Below are worked cases with known answers.
- COMPOUND: "CCOC(=O)COc1ccc(-c2[nH]nc3c2C(=O)c2c(NC(=O)NN4CCOCC4)cccc2-3)cc1"
  READOUT VALUE: "< 100 nM"
- COMPOUND: "Cc1cc(OCCN2CCCC2)ccc1-c1[nH]nc2c1C(=O)c1c(NC(=O)NN3CCOCC3)cccc1-2"
  READOUT VALUE: "< 10 nM"
- COMPOUND: "O=C(Nc1cccc2c1C(=O)c1c(-c3ccc(CN4CCCC4)cc3)n[nH]c1-2)NN1CCOCC1"
  READOUT VALUE: "< 100 nM"
- COMPOUND: "CC(C)c1nn(-c2c(Cl)cc(Cl)cc2Cl)c2nc(Cc3ccc(NS(=O)(=O)CCCN4CCN(C(C)C)CC4)cc3)[nH]c(=O)c12"
  READOUT VALUE: "< 100 nM"
- COMPOUND: "O=C(Nc1cccc2c1C(=O)c1c(-c3ccc(CNCCOCCO)cc3)n[nH]c1-2)NN1CCOCC1"
  READOUT VALUE: "< 100 nM"
- COMPOUND: "CC(C)OC(=O)CN1CCN(NC(=O)Nc2cccc3c2C(=O)c2c-3n[nH]c2-c2ccc(OCCN3CCCC3)cc2)CC1"
  READOUT VALUE: "< 100 nM"
- COMPOUND: "O=C(Nc1cccc2c1C(=O)c1c(-c3ccc(CN4CCN(c5ccccn5)CC4)cc3)n[nH]c1-2)NN1CCOCC1"
  READOUT VALUE: "< 100 nM"
- COMPOUND: "CC(C)C(N)C(=O)OCCN1CCN(NC(=O)Nc2cccc3c2C(=O)c2c-3n[nH]c2-c2ccc(OCCN3CCCC3)cc2)CC1 (stereo not given)"
  READOUT VALUE: "< 100 nM"

Enquiry: Provide measured IC50 value, entry: O=C(Nc1cccc2c1C(=O)c1c(-c3ccc(CN4CCC(O)CC4)cc3)n[nH]c1-2)NN1CCOCC1
Return: < 100 nM

Origin of the recorded values: the Kinase Knowledgebase extract (Sharma et al. 2016)
